Each item that follows carries a reported viability, T/C.
- Test system: 991263-137-R1-J2-PDC complex spheroid viability
- Assay Overview: Anticancer human tumor 991263-137-R1-J2-PDC patient-derived colon adenocarcinoma cell line growth inhibition [POLQ]
- Settings: second compound 0.1 µM; first compound 0.316 µM; stronger effect = lower value
Please respond with the number in % and leave the unit unwritten.

Look up viability, T/C for this compound: COc1cccc2c1C(=O)c1c(O)c3c(c(O)c1C2=O)CC(O)(C(=O)CO)CC3OC1CC(N)C(O)C(C)O1 (stereo not drawn) + Nc1ccc(C#CCN(C(=O)Cc2ncc(C(F)(F)F)cc2C(F)(F)F)c2ccc(F)cc2)nn1 91.5

Try the compound C#Cc1c(F)ccc2cc(O)cc(-c3ncc4c(N5CC6CCC(C5)N6)nc(OCC56CCCN5CC(F)C6)nc4c3F)c12 (stereo not drawn) + Cc1cccc(N(C)C(=O)C2C(O)CCN2c2nc(C)cc(C(F)(F)F)c2C#N)c1 109

Moving on to CCc1c2c(nc3ccc(O)cc13)-c1cc3c(c(=O)n1C2)COC(=O)[C@]3(O)CC + Cc1cccc(N(C)C(=O)C2C(O)CCN2c2nc(C)cc(C(F)(F)F)c2C#N)c1 36.1

Try this compound next: O=C(Nc1ccc(O)c(NS(=O)(=O)c2ccc(F)cc2)c1)c1ccc(-c2ccccc2)cc1 + COC1C(OC(N)=O)C(O)C(Oc2ccc3c(O)c(NC(=O)c4ccc(O)c(CC=C(C)C)c4)c(=O)oc3c2C)OC1(C)C 113

Now consider COc1cc2cc(C(=O)CCC(=O)O)sc2cc1OC + Nc1ccc(C#CCN(C(=O)Cc2ncc(C(F)(F)F)cc2C(F)(F)F)c2ccc(F)cc2)nn1 and answer again. 95.8

Now the compound C=CC(=O)N1CCN(c2nc(=O)n(-c3c(C)ccnc3C(C)C)c3nc(-c4c(O)cccc4F)c(F)cc23)C(C)C1 (stereo not drawn) + COC1C(OC(N)=O)C(O)C(Oc2ccc3c(O)c(NC(=O)c4ccc(O)c(CC=C(C)C)c4)c(=O)oc3c2C)OC1(C)C 115

What about this compound? COc1cccc(OCCCN)c1-c1cc(Nc2cnc(C#N)cn2)n[nH]1 + COC1C(OC(N)=O)C(O)C(Oc2ccc3c(O)c(NC(=O)c4ccc(O)c(CC=C(C)C)c4)c(=O)oc3c2C)OC1(C)C 59.6

Can you check CCc1cc2c(N3CCc4c(cc(Cn5ccnc5)cc4-c4cn(C)nc4C(F)(F)F)C3=O)ccnc2c(OC)n1 + COC1C(OC(N)=O)C(O)C(Oc2ccc3c(O)c(NC(=O)c4ccc(O)c(CC=C(C)C)c4)c(=O)oc3c2C)OC1(C)C next? 87.4

Next:
Reported viability, T/C for CC1COCCN1c1cc(-c2ccnn2C)c2ccnc(-c3ccn[nH]3)c2n1 (stereo not drawn) + Cc1cccc(N(C)C(=O)C2C(O)CCN2c2nc(C)cc(C(F)(F)F)c2C#N)c1 : what is it? 81.8

// query: CC1COCCN1c1cc(C2(S(C)(=N)=O)CC2)nc(-c2ccnc3[nH]ccc23)n1 (stereo not drawn) + Cc1cccc(N(C)C(=O)C2C(O)CCN2c2nc(C)cc(C(F)(F)F)c2C#N)c1 95

Repeat with COc1ccc([C@@H](O)c2cc(-c3ncnc4cc(N5CCOCC5)ccc34)c(F)cc2Cl)nn1 + Nc1ccc(C#CCN(C(=O)Cc2ncc(C(F)(F)F)cc2C(F)(F)F)c2ccc(F)cc2)nn1 91.1

And for Nc1ccn(C2OC(CO)C(O)C2(F)F)c(=O)n1 (stereo not drawn) + Nc1ccc(C#CCN(C(=O)Cc2ncc(C(F)(F)F)cc2C(F)(F)F)c2ccc(F)cc2)nn1 ? 59.2

Same again, this time with CC1COCCN1c1cc(C2(O)CC3CCC(C2)O3)c2cnn(-c3ccn[nH]3)c2n1 (stereo not drawn) + COC1C(OC(N)=O)C(O)C(Oc2ccc3c(O)c(NC(=O)c4ccc(O)c(CC=C(C)C)c4)c(=O)oc3c2C)OC1(C)C 80.4

How about this compound: CCc1cc2c(N3CCc4c(cc(Cn5ccnc5)cc4-c4cn(C)nc4C(F)(F)F)C3=O)cc(C)nc2c(OC)n1 + Cc1cccc(N(C)C(=O)C2C(O)CCN2c2nc(C)cc(C(F)(F)F)c2C#N)c1 96.2

====

- Test system: 991263-137-R1-J2-PDC complex spheroid viability
- Assay Overview: Anticancer human tumor 991263-137-R1-J2-PDC cell line growth inhibition [POLQ];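 further: spheroids exposed to compounds for 7 days before readout; 100% = DMSO vehicle control viability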
- Settings: second compound 10 µM; first compound 0.1 µM; stronger effect = lower value
viability, T/C values, listed per item
Numbers only here, please. The scale is %.

Param item = CCc1cc2c(N3CCc4c(cc(Cn5ccnc5)cc4-c4cn(C)nc4C(F)(F)F)C3=O)ccnc2c(OC)n1 + Nc1ccc(C#CCN(C(=O)Cc2ncc(C(F)(F)F)cc2C(F)(F)F)c2ccc(F)cc2)nn1 ; retrieve measured viability, T/C. 102

Thanks! And Nc1ccn(C2OC(CO)C(O)C2(F)F)c(=O)n1 (stereo not drawn) + Cc1cccc(N(C)C(=O)C2C(O)CCN2c2nc(C)cc(C(F)(F)F)c2C#N)c1 ? 70.3

Input CCc1c2c(nc3ccc(O)cc13)-c1cc3c(c(=O)n1C2)COC(=O)[C@]3(O)CC + Nc1ccc(C#CCN(C(=O)Cc2ncc(C(F)(F)F)cc2C(F)(F)F)c2ccc(F)cc2)nn1 53.3

====

- Tested on: 991263-137-R1-J2-PDC complex spheroid viability
- Assay Overview: Anticancer human tumor 991263-137-R1-J2-PDC cell line growth inhibition [POLQ];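 further: spheroids exposed to compounds for 7 days before readout; 100% = DMSO vehicle control viability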
- Settings: second compound 0.1 µM; first compound 3.16 µM; stronger effect = lower value
Readout Name: viability, T/C (%)
Hi! Could you send only the number? It should be in %, unit omitted.

Recorded viability, T/C for CNCc1ccc(-c2[nH]c3cc(F)cc4c3c2CCNC4=O)cc1 + Nc1ccc(C#CCN(C(=O)Cc2ncc(C(F)(F)F)cc2C(F)(F)F)c2ccc(F)cc2)nn1 with 991263-137-R1-J2-PDC complex spheroid viability, please? 110

Continue with O=C(Nc1ccc(O)c(NS(=O)(=O)c2ccc(F)cc2)c1)c1ccc(-c2ccccc2)cc1 + Nc1ccc(C#CCN(C(=O)Cc2ncc(C(F)(F)F)cc2C(F)(F)F)c2ccc(F)cc2)nn1 107

Ok, now C#Cc1c(F)ccc2cc(O)cc(-c3ncc4c(N5CC6CCC(C5)N6)nc(OCC56CCCN5CC(F)C6)nc4c3F)c12 (stereo not drawn) + COC1C(OC(N)=O)C(O)C(Oc2ccc3c(O)c(NC(=O)c4ccc(O)c(CC=C(C)C)c4)c(=O)oc3c2C)OC1(C)C 116

====

- Test system: 991263-137-R1-J2-PDC complex spheroid viability
- Assay Overview: Anticancer human tumor 991263-137-R1-J2-PDC cell line growth inhibition [POLQ];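 further: spheroids exposed to compounds for 7 days before readout; 100% = DMSO vehicle control viability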
- Settings: second compound 10 µM; first compound 0.1 µM; stronger effect = lower value
Examples of compounds with documented viability, T/C follow.
Express the result in % but write the number alone.

What value of viability, T/C on 991263-137-R1-J2-PDC complex spheroid viability does CC[C@@]1(O)C(=O)OCc2c1cc1n(c2=O)Cc2cc3c(CN(C)C)c(O)ccc3nc2-1 + Cc1cccc(N(C)C(=O)C2C(O)CCN2c2nc(C)cc(C(F)(F)F)c2C#N)c1 have? 77

Subsequent entry: CNCc1ccc(-c2[nH]c3cc(F)cc4c3c2CCNC4=O)cc1 + Nc1ccc(C#CCN(C(=O)Cc2ncc(C(F)(F)F)cc2C(F)(F)F)c2ccc(F)cc2)nn1 97.5

Here is the next compound: CCc1cc2c(N3CCc4c(cc(Cn5ccnc5)cc4-c4cn(C)nc4C(F)(F)F)C3=O)ccnc2c(OC)n1 + Cc1cccc(N(C)C(=O)C2C(O)CCN2c2nc(C)cc(C(F)(F)F)c2C#N)c1 111

Record: COc1cccc2c1C(=O)c1c(O)c3c(c(O)c1C2=O)CC(O)(C(=O)CO)CC3OC1CC(N)C(O)C(C)O1 (stereo not given) + Nc1ccc(C#CCN(C(=O)Cc2ncc(C(F)(F)F)cc2C(F)(F)F)c2ccc(F)cc2)nn1 88.4

Okay, next one:
Enter reported viability, T/C observed with 991263-137-R1-J2-PDC complex spheroid viability for CC1COCCN1c1cc(C2(O)CC3CCC(C2)O3)c2cnn(-c3ccn[nH]3)c2n1 (stereo not given) + Nc1ccc(C#CCN(C(=O)Cc2ncc(C(F)(F)F)cc2C(F)(F)F)c2ccc(F)cc2)nn1 82.1

====

- System: 991263-137-R1-J2-PDC complex spheroid viability
- Assay Overview: Anticancer human tumor 991263-137-R1-J2-PDC cell line growth inhibition [POLQ];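 further: spheroids exposed to compounds for 7 days before readout; 100% = DMSO vehicle control viability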
- Settings: second compound 0.0316 µM; first compound 10 µM; stronger effect = lower value
Reported viability, T/C values follow for various compounds
Give me the value, and tack the unit on after it.

Value lookup for viability, T/C; key = CC1COCCN1c1cc(C2(O)CC3CCC(C2)O3)c2cnn(-c3ccn[nH]3)c2n1 (stereo not given) + Nc1ccc(C#CCN(C(=O)Cc2ncc(C(F)(F)F)cc2C(F)(F)F)c2ccc(F)cc2)nn1 30.5%

Others:
// viability, T/C lookup, key: COc1cc(C2c3cc4c(cc3C(OC3OC5COC(C)OC5C(O)C3O)C3COC(=O)C23)OCO4)cc(OC)c1O (stereo not given) + COC1C(OC(N)=O)C(O)C(Oc2ccc3c(O)c(NC(=O)c4ccc(O)c(CC=C(C)C)c4)c(=O)oc3c2C)OC1(C)C 76.1%

Do the same for O=c1[nH]cc(F)c(=O)[nH]1 + COC1C(OC(N)=O)C(O)C(Oc2ccc3c(O)c(NC(=O)c4ccc(O)c(CC=C(C)C)c4)c(=O)oc3c2C)OC1(C)C please 79.3%

Follow-up item: CCc1cc2c(N3CCc4c(cc(Cn5ccnc5)cc4-c4cn(C)nc4C(F)(F)F)C3=O)cc(C)nc2c(OC)n1 + Cc1cccc(N(C)C(=O)C2C(O)CCN2c2nc(C)cc(C(F)(F)F)c2C#N)c1 89.5%

Further, for CNCc1ccc(-c2[nH]c3cc(F)cc4c3c2CCNC4=O)cc1 + COC1C(OC(N)=O)C(O)C(Oc2ccc3c(O)c(NC(=O)c4ccc(O)c(CC=C(C)C)c4)c(=O)oc3c2C)OC1(C)C ? 103%

Input CC1COCCN1c1cc(C2(O)CC3CCC(C2)O3)c2cnn(-c3ccn[nH]3)c2n1 (stereo not given) + Cc1cccc(N(C)C(=O)C2C(O)CCN2c2nc(C)cc(C(F)(F)F)c2C#N)c1 30.1%

Next entry: C#Cc1c(F)ccc2cc(O)cc(-c3ncc4c(N5CC6CCC(C5)N6)nc(OCC56CCCN5CC(F)C6)nc4c3F)c12 (stereo not given) + Nc1ccc(C#CCN(C(=O)Cc2ncc(C(F)(F)F)cc2C(F)(F)F)c2ccc(F)cc2)nn1 88%

Query CCCS(=O)(=O)Nc1ccc(F)c(C(=O)c2c[nH]c3ncc(-c4ccc(Cl)cc4)cc23)c1F + COC1C(OC(N)=O)C(O)C(Oc2ccc3c(O)c(NC(=O)c4ccc(O)c(CC=C(C)C)c4)c(=O)oc3c2C)OC1(C)C next 104%

Here is the next compound: CC1COCCN1c1cc(C2(S(C)(=N)=O)CC2)nc(-c2ccnc3[nH]ccc23)n1 (stereo not given) + Nc1ccc(C#CCN(C(=O)Cc2ncc(C(F)(F)F)cc2C(F)(F)F)c2ccc(F)cc2)nn1 86%

Also need O=C(Nc1ccc(O)c(NS(=O)(=O)c2ccc(F)cc2)c1)c1ccc(-c2ccccc2)cc1 + COC1C(OC(N)=O)C(O)C(Oc2ccc3c(O)c(NC(=O)c4ccc(O)c(CC=C(C)C)c4)c(=O)oc3c2C)OC1(C)C , thanks. 105%
